system: Man(a1-2)Man(a1-6)[Man(a1-3)]Man(a1-6)[Man(a1-2)Man(a1-2)Man(a1-3)]Man(b1-4)GlcNAc(b1-4)GlcNAc
assayText: glycan array binding signal (z-score within array); higher = stronger binding
recordedConditions: glycan notation: IUPAC condensed, linker removed
About 410 targets per protein were measured; listed, in parts, are those with the strongest signals and a random draw of the rest.
# glycan array binding signal (z-score) binned as low (below -0.2), middle (-0.2 to below 5), high (5 or more)

-- ask Looking at Ficolin B (Rattus norvegicus), P57756 (protein) MVLGSAALFVLSLCVTELTLHAADTCPEVKVLDLEGSNKLTILQGCPGLPGALGPKGEAGAKGDRGESGLPGHPGKAGPTGPKGDRGEKGVRGEKGDTGPSQSCATGPRTCKELLTRGYFLTGWYTIYLPDCRPLTVLCDMDTDGGGWTVFQRRIDGTVDFFRDWTSYKQGFGSQLGEFWLGNDNIHALTTQGTNELRVDLADFDGNHDFAKYSSFQIQGEAEKYKLILGNFLGGGAGDSLTSQNNMLFSTKDQDNDQGSSNCAVRYHGAWWYSDCHTSNLNGLYLRGLHKSYANGVNWKSWKGYNYSYKVSEMKVRLI , which class would you pick?
-- reply middle

-- ask Looking at AT1G15820(2) (Arabidopsis thaliana), Q9LMQ2 (protein) MAMAVSGAVLSGLGSSFLTGGKRGATALASGVGTGAQRVGRKTLIVAAAAAQPKKSWIPAVKGGGNFLDPEWLDGSLPGDFGFDPLGLGKDPAFLKWYREAELIHGRWAMAAVLGIFVGQAWSGVAWFEAGAQPDAIAPFSFGSLLGTQLLLMGWVESKRWVDFFNPDSQSVEWATPWSKTAENFANYTGDQGYPGGRFFDPLGLAGKNRDGVYEPDFEKLERLKLAEIKHSRLAMVAMLIFYFEAGQGKTPLGALGL , which class would you pick?
-- reply low

-- ask Looking at GSL-I (Griffonia simplicifolia) (protein) FNLPNFWSDVKDNIIFQGDANTTAGTLQLCKTNQYGNPLQYRAGRALYSDPVQLWDNKTGSVASFYTEFTFFLKITGDGPADGLAFFLAPPDSDVKDAGAYLGLFNKSTATQPSKNQVVAVEFDTWKNTDFPEPSYRHIGINVNSIVSVATKRWEDSDIFSGKIATARISYDGSAKILTVVLSYPDGADYILSHSVDLSKNLPNPIRVGISASTGANQFLTVYVLSWRFSSALQSTSVNAAMGPEIIRTVV , which class would you pick?
-- reply low

-- ask Looking at Banana lectin (Musa acuminata) (protein) MNGAIKVGAWGGNGGSAFDMGPAYRIISVKIFSGDVVDGVDVTFTYYGKTETRHYGGSGGTPHEIVLQEGEYLVGMAGEVANYHGAVVLGKLGFSTNKKAYGPFGNTGGTPFSLPIAAGKISGFFGRGGKFLDAIGVYLEPLEHHHHHH , which class would you pick?
-- reply high

-- ask Looking at Nictaba (Nicotiana tabacum), Q94EW1 (protein) MQGQWIAARDLSITWVDNPQYWTWKTVDPNIEVAELRRVAWLDIYGKIETKNLIRKTSYAVYLVFKLTDNPRELERATASLRFVNEVAEGAGIEGTTVFISKKKKLPGELGRFPHLRSDGWLEIKLGEFFNNLGEDGEVEMRLMEINDKTWKSGIIVKGFDIRPN , which class would you pick?
-- reply middle

-- ask Looking at UDA (Urtica dioica), P11218 (protein) MMMRFLSAVVIMSSAMAVGLVSAQRCGSQGGGGTCPALWCCSIWGWCGDSEPYCGRTCENKCWSGERSDHRCGAAVGNPPCGQDRCCSVHGWCGGGNDYCSGSKCQYRCSSSVRGPRVALSGNSTANSIGNVVVTEPLFDQMFSHRKDCPSQGFYSYHSFLVAAESFPAFGTIGDVATRKREVAAFLAHISQATSGERSDVENPHAWGLCHINTTTVTENDFCTSSDWPCAAGKKYSPRGPIQLTHNFNYGLAGQAIGEDLIQNPDLVEKDPIISFKTALWFWMSQHDNKPSCHDIVLNANSAANRIPNKGVIGNIISRAFGHDDFAVRSSSIGFYKRYCDMLGVSYGHDLKYWFDNTPSSEFQRIQMRVAA , which class would you pick?
-- reply high

-- ask Looking at OrysaEULS2 (Oryza sativa) (protein) MVYCRANPNYAMTARNGAVVLAPANPKDEYQHWIKDMRWSTSIKDEEGYPAFALVNKATGQAIKHSLGQSHPVRLVPYNPEVMDESVLWTESRDVGNGFRCIRMVNNIYLNFDAFHGDKYHGGVRDGTDIVLWKWCEGDNQRWKIQPYYILEQKLISEEDLNSAVDHHHHHH , which class would you pick?
-- reply middle

Numbers sourced from the supplement of paper PMC8728848.
